Target: T1, human insulin-like growth factor-II (human, UniProt P01344 25-91)
T1 construct: also called hIGF-II; IGF-II
T1 sequence (P01344 25-91 limits assumed): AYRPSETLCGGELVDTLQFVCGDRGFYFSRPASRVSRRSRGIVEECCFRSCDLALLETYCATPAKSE
Test: SPR (Biacore 2000), hIGF-II amine-coupled on CM-5, antibody as analyte, 25 C
observed_property: Ka (M⁻¹)
State the answer as a number, implicitly in M⁻¹.

Consider anti-hIGF CDR-grafted antibody QGAR/PLLDFT (antibody, human IgG1, V domains shown, Human IgG1, kappa (pKANTEX93)) VH: EVQLVESGGGVVQPGRSLRLSCAASGFTFSNYYMTWVRQAPTKGLEWVAYISSGGGSTYYRDSVKGRFTISRDNSKNTLYLQMNSLRAEDTAVYYCTTEDYGYWFAYWGQGTLVTVSS VL: DIVMTQSPDSLAVSLGERATINCRASSSVSYMHWYQQKPGQSPKPWIYGTSKLASGVPDRFSGSGSGTSYSLTISSLQAEDVAVYYCLQRSSYPPTFGQGTKVEIK . Its measured Ka is 3.52e+09

Consider anti-hIGF CDR-grafted antibody QGAR/NYPLL3A11 (antibody, V domains shown, Human IgG1, kappa (pKANTEX93)) VH: EVQLVESGGGVVQPGRSLRLSCAASGFTFSNYYMTWVRQAPTKGLEWVAYISSGGGSTYYRDSVKGRFTISRDNSKNTLYLQMNSLRAEDTAVYYCTTEDYGYWFAYWGQGTLVTVSS VL: DIVMTQSPDSLAVSLGERATITCRASSSVSYMHWFQQKPGQSPKPWIYGTSKLASGVPDRFSGSGSGTSYSLTISSLQAEDAATYYCLQRSSYPPTFGQGTKVEIK . Its measured Ka is 3.96e+09

Consider anti-hIGF CDR-grafted antibody QAR/LV0 (antibody, human IgG1, V domains shown, Human IgG1, kappa (pKANTEX93); also called QAV/LV0) VH: EVQLVESGGGVVQPGRSLRLSCAASGFTFSNYYMTWVRQAPGKGLEWVAYISSGGGSTYYRDSVKGRFTISRDNSKNTLYLQMNSLRAEDTAVYYCTTEDYGYWFAYWGQGTLVTVSS VL: DIVMTQSPDSLAVSLGERATINCRASSSVSYMHWYQQKPGQPPKLLIYGTSKLASGVPDRFSGSGSGTDFTLTISSLQAEDVAVYYCLQRSSYPPTFGQGTKVEIK . Its measured Ka is 4.5e+08
